assay notes: self-splicing fitness, log relative to wild type (ln ratio); higher = more splicing; Tetrahymena group I intron in knt gene, E. coli kanamycin selection, DiMSum; sequences stand for … in CUCUCU…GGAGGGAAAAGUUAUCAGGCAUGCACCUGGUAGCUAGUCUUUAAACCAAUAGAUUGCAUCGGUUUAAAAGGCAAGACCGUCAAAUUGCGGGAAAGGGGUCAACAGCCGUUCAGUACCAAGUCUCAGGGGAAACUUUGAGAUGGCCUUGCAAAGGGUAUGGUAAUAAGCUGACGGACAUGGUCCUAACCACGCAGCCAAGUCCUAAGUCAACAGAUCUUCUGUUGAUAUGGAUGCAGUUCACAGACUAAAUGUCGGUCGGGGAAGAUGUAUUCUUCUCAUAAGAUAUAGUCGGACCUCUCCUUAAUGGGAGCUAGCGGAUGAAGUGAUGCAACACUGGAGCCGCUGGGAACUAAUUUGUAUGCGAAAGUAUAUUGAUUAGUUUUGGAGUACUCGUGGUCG;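 further: selection with 25 µg/mL kanamycin versus none on LB agar overnight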
condition info: 37 °C
readout: self-splicing fitness (ln)
Just the number, please, no unit attached.

Before answering, review these 3 worked examples.
>  <sequence input>
AUACAGCAAUAUUACGAGAG

>  <self-splicing fitness (ln)>
-2.1

$$$$
>  <sequence input>
UUUAAGCAAUAUUACGACCA

>  <self-splicing fitness (ln)>
-0.376

$$$$
>  <sequence input>
CGACAGCAAUAUUACGUCAC

>  <self-splicing fitness (ln)>
-2.19

$$$$

Task: Given `CCCAAGCAAUAUUACGGGCA` , state its recorded self-splicing fitness (ln).
Result: -1.82

Task: # lookup: self-splicing fitness (ln) of `GUUCAGCAAUAUUACGCAGU`
Result: 0.201

Task: Suppose we examine the sequence `UAUUAGCAAUAUUACGCCGA` ; what self-splicing fitness (ln) value has been reported?
Result: -0.195

Task: // self-splicing fitness (ln) lookup, key: `UUCCAGCAAUAUUACGGCGC`
Result: -0.177

Task: Need self-splicing fitness (ln) of `GGUUAGCAAUAUUACGAUAU` , thanks.
Result: -0.137

Task: Need self-splicing fitness (ln) of `CACCAGCAAUAUUACGCAUG` , thanks.
Result: -0.787

Task: Data request, read-out self-splicing fitness (ln), for `GCCUAGCAAUAUUACGAUGU`
Result: 0.35

Task: Data request, read-out self-splicing fitness (ln), for `UGAGAGCAAUAUUACGAAUU`
Result: -2.79

Task: Which value of self-splicing fitness (ln) has been reported for `AUCAAGCAAUAUUACGGGAU` in the records?
Result: -2.12

Task: Dear colleague, I am looking for the recorded self-splicing fitness (ln) of the following sequence: `UUUUAGCAAUAUUACGCUGA`
Result: -2.31

###

assay notes: self-splicing fitness, log relative to wild type (ln ratio); higher = more splicing; Tetrahymena group I intron in knt gene, E. coli kanamycin selection, DiMSum; sequences stand for … in CUCUCU…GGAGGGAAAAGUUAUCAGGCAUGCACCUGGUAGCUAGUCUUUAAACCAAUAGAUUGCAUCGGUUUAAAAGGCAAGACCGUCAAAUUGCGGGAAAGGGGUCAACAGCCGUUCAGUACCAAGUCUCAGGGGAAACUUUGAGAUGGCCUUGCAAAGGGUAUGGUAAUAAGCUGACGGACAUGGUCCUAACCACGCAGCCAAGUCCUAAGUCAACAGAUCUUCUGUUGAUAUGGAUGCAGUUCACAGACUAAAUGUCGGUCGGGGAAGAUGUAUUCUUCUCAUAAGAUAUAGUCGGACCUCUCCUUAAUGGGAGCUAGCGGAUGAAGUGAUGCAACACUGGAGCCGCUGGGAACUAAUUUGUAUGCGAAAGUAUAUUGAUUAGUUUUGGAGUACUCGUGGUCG
condition info: 37 °C
Entry flag: TRUE if self-splicing fitness (ln) reaches -2; FALSE if it does not.

Below, 10 sequences whose answers are already recorded.
>  <sequence input>
ACUCAGCAAUAUUACGCCCU

>  <category>
TRUE

$$$$
>  <sequence input>
GAUUAGCAAUAUUACGAUUU

>  <category>
TRUE

$$$$
>  <sequence input>
UUAGAGCAAUAUUACGGUAG

>  <category>
TRUE

$$$$
>  <sequence input>
ACAAAGCAAUAUUACGCUAG

>  <category>
TRUE

$$$$
>  <sequence input>
UUACAGCAAUAUUACGGGUU

>  <category>
FALSE

$$$$
>  <sequence input>
GUAAAGCAAUAUUACGCUAC

>  <category>
TRUE

$$$$
>  <sequence input>
CCGAAGCAAUAUUACGAUCU

>  <category>
FALSE

$$$$
>  <sequence input>
UUAGAGCAAUAUUACGUACC

>  <category>
TRUE

$$$$
>  <sequence input>
UAAAAGCAAUAUUACGAUUC

>  <category>
TRUE

$$$$
>  <sequence input>
AAUCAGCAAUAUUACGACAU

>  <category>
TRUE

$$$$

Read the next record carefully.
Task: Hi, just wondering whether `AUGGAGCAAUAUUACGGAUU` shows self-splicing fitness (ln) of -2 or higher.
Result: TRUE

Source of measurements: the supplement of paper PMC7877785
